Origin of measurements: patent US10405547B2

I'd be grateful if you could share measured Plant response rating, Corn for these entries.
# Tested on: corn (Zea mays)
# ASSAY_OVERVIEW: Test A postemergence, corn
# Type: in vivo
# CONDITION_DESCRIPTION: 125 g ai/ha, visual injury, 0 to 100 scale (0 no effect, 100 complete control), approximately 10 days
Lab note: record just the number, no unit beside it.

Q) Write down the reported Plant response rating, Corn (system: corn (Zea mays)) of CN1CC(c2cccc(Oc3ncc(F)cc3F)c2)C(C(=O)Nc2cccc(F)c2F)C1=O (single isomer, unassigned)
A) 20

Q) Write down the reported Plant response rating, Corn (system: corn (Zea mays)) of O=C1NCC(c2cccc(Cn3cncn3)c2)C1C(=O)Nc1ccccc1F (stereo not drawn)
A) 0

Q) Write down the reported Plant response rating, Corn (system: corn (Zea mays)) of O=C1NCC(c2cccc(OCc3ccccc3)c2)C1C(=O)Nc1ccccc1F (stereo not drawn)
A) 0
